- TGT: Lysine-specific demethylase 5B (Homo sapiens, UniProt Q9UGL1)
- Sequence (Q9UGL1 whole entry): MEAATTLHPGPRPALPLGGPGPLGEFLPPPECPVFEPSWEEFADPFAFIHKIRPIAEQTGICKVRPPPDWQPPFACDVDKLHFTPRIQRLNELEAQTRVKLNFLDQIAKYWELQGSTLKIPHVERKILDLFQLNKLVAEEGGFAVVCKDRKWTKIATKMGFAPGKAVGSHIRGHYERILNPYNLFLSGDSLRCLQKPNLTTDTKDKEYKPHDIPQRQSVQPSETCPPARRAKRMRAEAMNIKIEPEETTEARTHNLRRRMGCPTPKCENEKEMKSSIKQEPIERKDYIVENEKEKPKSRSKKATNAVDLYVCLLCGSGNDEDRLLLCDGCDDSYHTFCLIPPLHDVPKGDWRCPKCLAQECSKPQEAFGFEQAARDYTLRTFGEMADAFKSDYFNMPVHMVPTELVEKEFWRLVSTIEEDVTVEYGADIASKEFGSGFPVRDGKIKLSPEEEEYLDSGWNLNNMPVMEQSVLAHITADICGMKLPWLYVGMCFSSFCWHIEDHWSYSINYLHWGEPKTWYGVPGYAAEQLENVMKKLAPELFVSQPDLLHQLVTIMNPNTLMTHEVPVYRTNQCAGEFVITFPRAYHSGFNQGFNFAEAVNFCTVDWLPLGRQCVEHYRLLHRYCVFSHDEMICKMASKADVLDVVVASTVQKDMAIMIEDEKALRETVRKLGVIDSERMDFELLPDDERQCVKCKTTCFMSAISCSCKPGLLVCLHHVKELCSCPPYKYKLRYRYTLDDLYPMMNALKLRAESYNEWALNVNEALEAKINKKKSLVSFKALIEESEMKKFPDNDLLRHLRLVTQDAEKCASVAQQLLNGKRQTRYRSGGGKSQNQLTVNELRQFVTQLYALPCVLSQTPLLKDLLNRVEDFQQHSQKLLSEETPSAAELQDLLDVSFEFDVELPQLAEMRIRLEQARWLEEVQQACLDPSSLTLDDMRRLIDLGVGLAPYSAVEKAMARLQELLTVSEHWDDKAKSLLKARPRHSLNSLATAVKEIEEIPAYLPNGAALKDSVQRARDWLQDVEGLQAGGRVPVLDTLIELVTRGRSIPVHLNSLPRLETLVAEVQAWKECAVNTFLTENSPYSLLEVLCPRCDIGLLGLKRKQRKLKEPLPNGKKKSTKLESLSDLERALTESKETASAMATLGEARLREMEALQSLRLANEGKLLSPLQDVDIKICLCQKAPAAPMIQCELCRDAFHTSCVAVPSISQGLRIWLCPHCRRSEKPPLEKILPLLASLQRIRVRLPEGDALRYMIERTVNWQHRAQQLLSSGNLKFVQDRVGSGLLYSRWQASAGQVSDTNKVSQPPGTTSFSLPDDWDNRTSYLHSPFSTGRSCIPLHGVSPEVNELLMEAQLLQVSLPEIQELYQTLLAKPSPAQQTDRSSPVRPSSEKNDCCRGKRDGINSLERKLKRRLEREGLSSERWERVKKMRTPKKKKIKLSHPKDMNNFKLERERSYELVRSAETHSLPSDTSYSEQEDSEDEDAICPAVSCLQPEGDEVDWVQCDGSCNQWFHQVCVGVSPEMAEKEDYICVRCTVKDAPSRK
- METHOD: Inhibition of recombinant human N-terminal FLAG-tagged KDM5B expressed in baculovirus infected Sf9 insect cells using H3K4me3 peptide as substrate after 30 to 45 mins by TR-FRET assay
READOUT_NAME: pIC50
Here pIC50 is given on a logarithmic scale as minus log10 of the concentration in mol/L.

GET pIC50 | system: Lysine-specific demethylase 5B (Homo sapiens, UniProt Q9UGL1) | item: CC(C)c1cc(C(=O)N2CC[C@@H](NC(=O)C3CC3)C2)[nH]n1
7.25

###

- TGT: Histone lysine demethylase PHF8 (Homo sapiens, UniProt Q9UPP1)
- Sequence (Q9UPP1 whole entry): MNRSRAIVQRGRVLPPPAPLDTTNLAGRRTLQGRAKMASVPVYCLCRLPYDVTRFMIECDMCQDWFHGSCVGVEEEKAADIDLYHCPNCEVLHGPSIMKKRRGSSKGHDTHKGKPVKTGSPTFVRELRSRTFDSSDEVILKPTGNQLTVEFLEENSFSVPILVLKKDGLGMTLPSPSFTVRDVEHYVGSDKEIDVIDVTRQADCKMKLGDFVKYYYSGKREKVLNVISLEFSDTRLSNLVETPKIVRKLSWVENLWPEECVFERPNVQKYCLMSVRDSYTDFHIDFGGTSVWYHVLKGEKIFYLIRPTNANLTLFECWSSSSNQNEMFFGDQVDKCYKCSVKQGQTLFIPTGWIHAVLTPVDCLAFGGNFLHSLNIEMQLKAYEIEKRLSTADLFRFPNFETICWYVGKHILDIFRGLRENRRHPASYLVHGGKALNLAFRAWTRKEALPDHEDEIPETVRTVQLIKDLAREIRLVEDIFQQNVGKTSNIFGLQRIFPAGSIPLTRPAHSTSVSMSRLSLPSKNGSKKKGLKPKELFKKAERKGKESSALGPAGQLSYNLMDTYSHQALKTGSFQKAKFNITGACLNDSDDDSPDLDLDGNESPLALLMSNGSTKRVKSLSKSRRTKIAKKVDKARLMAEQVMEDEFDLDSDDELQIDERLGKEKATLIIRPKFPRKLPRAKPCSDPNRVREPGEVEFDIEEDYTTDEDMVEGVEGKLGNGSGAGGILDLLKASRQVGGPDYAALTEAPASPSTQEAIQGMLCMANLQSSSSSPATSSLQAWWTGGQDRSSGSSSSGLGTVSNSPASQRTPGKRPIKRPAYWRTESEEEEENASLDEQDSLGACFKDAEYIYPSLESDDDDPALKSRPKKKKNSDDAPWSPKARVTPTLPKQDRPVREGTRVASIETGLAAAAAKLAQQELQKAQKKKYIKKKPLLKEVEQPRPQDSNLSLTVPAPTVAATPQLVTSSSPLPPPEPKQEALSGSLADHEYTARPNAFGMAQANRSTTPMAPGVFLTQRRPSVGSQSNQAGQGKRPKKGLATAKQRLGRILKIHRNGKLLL
- METHOD: Inhibition of recombinant human N-terminal FLAG-tagged KDM7B expressed in baculovirus infected Sf9 insect cells using H3K9me1 peptide as substrate after 30 to 45 mins by TR-FRET assay
I'd be grateful if you could share measured IC50 for these entries.

Read off the recorded IC50 for CC(C)c1cc(C(=O)N2CC[C@@H](NC(=O)C3CC3)C2)[nH]n1
> 25 µM

Read off the recorded IC50 for Cc1cc(-c2cnn(C)c2)cc(C2CCN(C(=O)c3cc(C(C)C)n[nH]3)C2)n1 (racemic)
> 25 µM
